Data credit: BindingDB's records for patent US10774051

tested.system: P2X purinoceptor 7 [Y155H,R270H] (Homo sapiens, UniProt Q99572, R270H/Y155H)
Sequence (Q99572 whole entry Y155H/R270H, looked up): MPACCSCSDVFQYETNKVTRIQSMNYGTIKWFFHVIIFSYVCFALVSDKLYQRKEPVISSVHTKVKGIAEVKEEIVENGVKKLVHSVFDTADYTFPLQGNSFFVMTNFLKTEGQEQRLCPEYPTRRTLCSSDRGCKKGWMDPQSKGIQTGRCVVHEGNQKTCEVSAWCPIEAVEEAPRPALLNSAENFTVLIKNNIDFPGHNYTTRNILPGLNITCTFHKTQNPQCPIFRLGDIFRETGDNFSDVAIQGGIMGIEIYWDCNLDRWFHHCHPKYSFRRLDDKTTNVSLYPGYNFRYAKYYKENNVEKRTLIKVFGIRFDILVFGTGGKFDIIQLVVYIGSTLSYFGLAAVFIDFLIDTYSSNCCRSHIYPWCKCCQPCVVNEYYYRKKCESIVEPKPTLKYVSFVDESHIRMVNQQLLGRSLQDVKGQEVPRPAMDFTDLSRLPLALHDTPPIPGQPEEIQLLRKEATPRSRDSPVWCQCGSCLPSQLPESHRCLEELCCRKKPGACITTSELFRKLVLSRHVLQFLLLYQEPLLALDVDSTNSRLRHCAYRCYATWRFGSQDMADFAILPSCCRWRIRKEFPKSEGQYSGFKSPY
procedure.details: Evaluation of a Human P2X7 Receptor Inhibitory Activity
Procedure: Stably expressing cell line (1321N1 cell transfected with the human P2X7 receptor gene (GenBank accession number NM_002562.5 including T606C and G952A SNP)) was used. […] Measurement of fluorescence intensity by FLIPR TETRA was started. […] Changing values of fluorescence intensity by the compound of the present invention were calculated by difference between maximum and minimum fluorescence intensity for 20 minutes. IC50 was calculated using logistic approximation.
measured.attribute: IC50

Input line: Which IC50 value is on record for COc1cn(Cc2cc(F)c(F)c(F)c2)c(Nc2cccc(Cl)c2C)nc1=O ?
Output line: < 10 nM
